Field: pIC50. Provide a value for each of the compounds that follow.
testSystem: KRAS (G12C)::SOS1 (Homo sapiens, UniProt P01116, C118S/C51S/C80L/G12C)
Construct: KRAS (G12C) 1-169, N-terminal 6His-tag for purification, cleaved off; 6His-tag (N, cleaved yes)
Sequence (P01116 1-169 isoform P01116-2 G12C/C51S/C80L/C118S): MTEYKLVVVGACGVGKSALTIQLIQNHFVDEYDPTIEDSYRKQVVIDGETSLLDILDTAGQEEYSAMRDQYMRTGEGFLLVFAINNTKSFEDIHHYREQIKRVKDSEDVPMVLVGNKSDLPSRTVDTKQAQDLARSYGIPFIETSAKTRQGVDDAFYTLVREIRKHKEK
procedureText: KRAS::SOS1 AlphaScreen binding assay, KRAS G12C
A value of pIC50 is the negative decimal logarithm of a concentration given in moles per litre.

Read off the recorded pIC50 for C[C@H]1CNCCCN1c1nccc(-c2noc3c2CC(F)(F)CC32CCCc3sc(N)c(C#N)c32)n1 (some centres unmarked) 7.41

Read off the recorded pIC50 for C[C@H](Oc1nccc(-c2nnn3c2CCCC32CCCc3sc(N)c(C#N)c32)n1)[C@@H]1CCCN1C (some centres unmarked) 7.25

Read off the recorded pIC50 for C[C@H](Oc1nccc(-c2onc3c2CCC[C@@]32CCCc3sc(N)c(C#N)c32)n1)[C@@H]1C[C@@H]2C[C@@H]2N1C 8.15

Read off the recorded pIC50 for C[C@H]1CN(C2CCOC2)CCCN1c1nccc(-c2onc3c2CCC[C@@]32CCCc3sc(N)c(C#N)c32)n1 (some centres unmarked) 7.92

Read off the recorded pIC50 for C[C@H](Oc1nccc(-c2onc3c2CCC[C@@]32CCCc3sc(N)c(C#N)c32)n1)[C@@H]1C[C@@H](F)CN1C 8.30

Read off the recorded pIC50 for C[C@H]1CNCCCN1c1nccc(-c2noc3c2CSCC32CCCc3sc(N)c(C#N)c32)n1 (some centres unmarked) 7.72

Read off the recorded pIC50 for C[C@H]1CNCCCN1c1nccc(-c2noc3c2CCC[C@@]32CCCc3sc(N)c(C#N)c32)n1 (single isomer, unassigned) 8.15

Read off the recorded pIC50 for C[C@H](Oc1nccc(-c2onc3c2CCC[C@@]32CCCc3sc(N)c(C#N)c32)n1)[C@@H]1CCCN1C 8.52

Read off the recorded pIC50 for C[C@H](Oc1ccnc(-c2noc3c2CCC[C@@]32CCCc3sc(N)c(C#N)c32)n1)[C@@H]1CCCN1C 8.52

Read off the recorded pIC50 for C[C@H]1CN(C2CCOCC2)CCCN1c1nccc(-c2noc3c2CCC[C@@]32CCCc3sc(N)c(C#N)c32)n1 (single isomer, unassigned) 8.00

Read off the recorded pIC50 for C[C@H](Oc1nccc(-c2n[nH]c3c2CCCC32CCCc3sc(N)c(C#N)c32)n1)[C@@H]1CCCN1C (some centres unmarked) 7.55

Read off the recorded pIC50 for CO[C@@H]1C[C@@H]([C@H](C)Oc2nccc(-c3onc4c3CCC[C@@]43CCCc4sc(N)c(C#N)c43)n2)N(C)C1 8.52

Read off the recorded pIC50 for C[C@H]1CNCCCN1c1cccc(-c2onc3c2CCC[C@@]32CCCc3sc(N)c(C#N)c32)n1 7.72

Read off the recorded pIC50 for C[C@H]1CNCCCN1c1nccc(-c2nn(C)c3c2CCC32CCCc3sc(N)c(C#N)c32)n1 (some centres unmarked) 5.80

Read off the recorded pIC50 for C[C@H]1CNCCCN1c1ncnc(-c2onc3c2CCC[C@@]32CCCc3sc(N)c(C#N)c32)n1 8.05

Read off the recorded pIC50 for C[C@H](Oc1nccc(-c2noc3c2CCC[C@@]32CCCc3sc(N)c(C#N)c32)n1)[C@@]1(C)CCCN1C 8.10

Read off the recorded pIC50 for C[C@H]1[C@@H]2CCCN2CCCN1c1nccc(-c2onc3c2CCC[C@@]32CCCc3sc(N)c(C#N)c32)n1 8.52

Read off the recorded pIC50 for C[C@H]1CNCCCN1c1nccc(-c2onc3c2CCC[C@@]32CCCc3sc(N)c(C#N)c32)n1 8.10

Read off the recorded pIC50 for C[C@@H](O)CN1CCCN(c2nccc(-c3onc4c3CCC[C@@]43CCCc4sc(N)c(C#N)c43)n2)[C@@H](C)C1 8.22

Read off the recorded pIC50 for C[C@@H]1NCCCN(c2nccc(-c3onc4c3CCC[C@@]43CCCc4sc(N)c(C#N)c43)n2)[C@H]1C 7.85
